Each entry below carries its reported upper right quadrant, percent of cells AF647+ / hTcRβ-PerCP+.
system: T1, human CD3e (T-cell surface glycoprotein CD3 epsilon chain) (human, UniProt P07766 23-207)
T1 construct: Target of the anti-hCD3e antibodies on human PBMC, Jurkat cells and cells expressing human CD3e; on T cells it is part of the CD3/TCR complex; also called hCD3e; CD3e on human PBMC
test.protocol: flow cytometry, human PBMC, antibody 0.01 ug/mL, anti-human IgG Fc-Alexa Fluor647 (1:500), anti-hTcRβ-PerCP (1:30)

Query block: Given the entry 10A4-H3K2-IgG1-LALA (antibody, V domains shown, Humanized; human IgG1 with LALA mutations; also called H3K2 (humanized 10A4)) VH: QVQLVQSGAEVKKPGASVKISCKASGYTFTSYYIHWVRQRPGQRLEFIGWIYPGNVNAKYNEKFKGRATLTTDKSASTAYMELSSLRSEDTAVYFCAIKGGNYDWGQGTLVTVSS VL: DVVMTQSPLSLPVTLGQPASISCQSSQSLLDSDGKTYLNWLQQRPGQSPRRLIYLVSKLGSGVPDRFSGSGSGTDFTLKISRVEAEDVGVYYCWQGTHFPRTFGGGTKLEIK , report its measured upper right quadrant, percent of cells AF647+ / hTcRβ-PerCP+.
Result block: 15.2%

We next turn to a different binder, shown below.
Query block: Given the entry 10A4-H2K1-IgG1-LALA (antibody, V domains shown, Humanized; human IgG1 with LALA mutations; also called H2K1 (humanized 10A4)) VH: QVQLVQSGAEVKKPGASVKISCKASGYTFTSYYIHWVRQAPGQRLEFIGWIYPGNVNAKYNEKFKGRATITTDKSASTAYMELSSLRSEDTAVYYCAIKGGNYDWGQGTLVTVSS VL: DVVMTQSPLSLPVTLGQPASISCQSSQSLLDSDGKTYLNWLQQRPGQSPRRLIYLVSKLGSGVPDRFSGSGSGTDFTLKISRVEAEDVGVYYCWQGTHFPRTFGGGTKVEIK , report its measured upper right quadrant, percent of cells AF647+ / hTcRβ-PerCP+.
Result block: 14.8%
